Values compiled from the supplement of paper PMC6607015.

- Test system: HeLa MZ
- assay.details: filipin (cholesterol) integrated intensity within LBPA endosomes, Z-score; higher = more cholesterol in LBPA endosomes
- condition.notes: compound concentration in added solution (µM; 5 µl added to 20 µl cells): 10; 18 h
Counter-ions that a name gives are not always drawn.
Exercise: for every item that follows, state its recorded filipin (z-score).
Just the number, please, no unit attached.

Prompt: I am curious: what filipin (z-score) value has been reported for CCCOc1ccc(C(=O)OCCN(CC)CC)cc1N [Proparacaine hydrochloride] ?
Response: -0.0385

Prompt: I am curious: what filipin (z-score) value has been reported for CC(=O)N(O)CCCCCNC(=O)CCC(=O)N(O)CCCCCNC(=O)CCC(=O)N(O)CCCCCN [Deferoxamine mesylate] ?
Response: -0.499

Prompt: I am curious: what filipin (z-score) value has been reported for CC(C(=O)O)c1ccc(N2Cc3ccccc3C2=O)cc1 (centres undefined) [Indoprofen] ?
Response: -0.482

Prompt: I am curious: what filipin (z-score) value has been reported for CCOC(=O)c1ccc(N)cc1 [Benzocaine] ?
Response: -0.643

Prompt: I am curious: what filipin (z-score) value has been reported for CNCCCN1c2ccccc2CCc2ccccc21 [Desipramine hydrochloride] ?
Response: 2.58

Prompt: I am curious: what filipin (z-score) value has been reported for Cc1cn([C@H]2C=C[C@@H](CO)O2)c(=O)[nH]c1=O [Stavudine] ?
Response: -0.475

Prompt: I am curious: what filipin (z-score) value has been reported for O=C(NCC(O)CO)c1c(I)c(C(=O)NCC(O)CO)c(I)c(N(CCO)C(=O)CO)c1I (centres undefined) [Ioversol] ?
Response: -0.701

Prompt: I am curious: what filipin (z-score) value has been reported for CCCCC[C@H](O)/C=C/[C@@H]1[C@@H](C/C=C\CCCC(=O)O)[C@@H](O)C[C@H]1O [Dinoprost trometamol] ?
Response: -0.236

Prompt: I am curious: what filipin (z-score) value has been reported for CNC1(C)C2CCC(C2)C1(C)C (centres undefined) [Mecamylamine hydrochloride] ?
Response: -0.557

====

- Test system: A431
- assay.details: LBPA endosome anti-LBPA integrated intensity (sum per cell), Z-score; higher = more LBPA staining
- condition.notes: compound concentration in added solution (µM; 5 µl added to 20 µl cells): 10; 18 h
Structures can show the parent of a compound that is named as a salt.
Decide using LBPA endosome anti-LBPA integrated intensity (z-score): a value greater than or equal to -0.4 is Y, a smaller one is N.

Prompt: Test whether the molecule CCSc1ccc2c(c1)N(CCCN1CCN(C)CC1)c1ccccc1S2 [Thiethylperazine dimalate] records LBPA endosome anti-LBPA integrated intensity (z-score) of -0.4 or higher.
Response: Y

Prompt: Test whether the molecule O=c1oc2ccccc2c(O)c1Cc1c(O)c2ccccc2oc1=O [Dicumarol] records LBPA endosome anti-LBPA integrated intensity (z-score) of -0.4 or higher.
Response: N

Prompt: Test whether the molecule CCN(CC)CCNC(=O)c1cc(S(C)(=O)=O)ccc1OC [Tiapride hydrochloride] records LBPA endosome anti-LBPA integrated intensity (z-score) of -0.4 or higher.
Response: N

Prompt: Test whether the molecule CN(C)CCCN1c2ccccc2CCc2ccccc21 [Imipramine hydrochloride] records LBPA endosome anti-LBPA integrated intensity (z-score) of -0.4 or higher.
Response: Y

Prompt: Test whether the molecule O=C(O)c1cccnc1Nc1cccc(C(F)(F)F)c1 [Niflumic acid] records LBPA endosome anti-LBPA integrated intensity (z-score) of -0.4 or higher.
Response: N

Prompt: Test whether the molecule Cn1cnc([N+](=O)[O-])c1Sc1ncnc2[nH]cnc12 [Azathioprine] records LBPA endosome anti-LBPA integrated intensity (z-score) of -0.4 or higher.
Response: N

Prompt: Test whether the molecule O=C(O)c1cn(C2CC2)c2cc(N3CCNCC3)c(F)cc2c1=O [Ciprofloxacin hydrochloride hydrate] records LBPA endosome anti-LBPA integrated intensity (z-score) of -0.4 or higher.
Response: N

Prompt: Test whether the molecule O=C(O[C@@H]1C[C@@H]2C[C@H]3C[C@H](C1)N2CC3=O)c1c[nH]c2ccccc12 [Dolasetron mesilate] records LBPA endosome anti-LBPA integrated intensity (z-score) of -0.4 or higher.
Response: N

Prompt: Test whether the molecule Nc1nc2c(ncn2COCCO)c(=O)[nH]1 [Acyclovir] records LBPA endosome anti-LBPA integrated intensity (z-score) of -0.4 or higher.
Response: N

Prompt: Test whether the molecule O=C(O)COCCN1CCN(C(c2ccccc2)c2ccc(Cl)cc2)CC1 (stereo not drawn) [Cetirizine dihydrochloride] records LBPA endosome anti-LBPA integrated intensity (z-score) of -0.4 or higher.
Response: N

Prompt: Test whether the molecule C[C@]12CC[C@@H]3c4ccc(OS(=O)(=O)O)cc4CC[C@H]3[C@@H]1CCC2=O [Estropipate] records LBPA endosome anti-LBPA integrated intensity (z-score) of -0.4 or higher.
Response: N

Prompt: Test whether the molecule CCN(CC)CCNC(=O)COc1ccc(OC)cc1 [Mefexamide hydrochloride] records LBPA endosome anti-LBPA integrated intensity (z-score) of -0.4 or higher.
Response: Y

Prompt: Test whether the molecule C[N+](C)(CCOc1ccccc1)Cc1ccccc1.O=C([O-])c1cc2ccccc2cc1O [Bephenium hydroxynaphthoate] records LBPA endosome anti-LBPA integrated intensity (z-score) of -0.4 or higher.
Response: N

Prompt: Test whether the molecule CC(C)NCC(O)COc1ccc(COCCOC(C)C)cc1 (stereo not drawn) [Bisoprolol fumarate] records LBPA endosome anti-LBPA integrated intensity (z-score) of -0.4 or higher.
Response: Y

Prompt: Test whether the molecule COc1ccc(/C=C/C(=O)Nc2ccccc2C(=O)O)cc1OC [Tranilast] records LBPA endosome anti-LBPA integrated intensity (z-score) of -0.4 or higher.
Response: Y

Prompt: Test whether the molecule COC(=O)Nc1nc2cc([S+]([O-])c3ccccc3)ccc2[nH]1 (stereo not drawn) [Oxfendazol] records LBPA endosome anti-LBPA integrated intensity (z-score) of -0.4 or higher.
Response: N

Prompt: Test whether the molecule O=C(NCC1CCCCN1)c1cc(OCC(F)(F)F)ccc1OCC(F)(F)F (stereo not drawn) [Flecainide acetate] records LBPA endosome anti-LBPA integrated intensity (z-score) of -0.4 or higher.
Response: Y

Prompt: Test whether the molecule CCOC(=O)C1=C(C)NC(C)=C(C(=O)OC)C1c1cccc([N+](=O)[O-])c1 (stereo not drawn) [Nitrendipine] records LBPA endosome anti-LBPA integrated intensity (z-score) of -0.4 or higher.
Response: Y

Prompt: Test whether the molecule CCN(CCCCOC(=O)c1ccc(OC)c(OC)c1)C(C)Cc1ccc(OC)cc1 (stereo not drawn) [Mebeverine hydrochloride] records LBPA endosome anti-LBPA integrated intensity (z-score) of -0.4 or higher.
Response: Y

Prompt: Test whether the molecule Cc1ncc(CO)c(CO)c1O [Pyridoxine hydrochloride] records LBPA endosome anti-LBPA integrated intensity (z-score) of -0.4 or higher.
Response: N

Prompt: Test whether the molecule OCc1cc(C(O)CNCCCCCCOCCCCc2ccccc2)ccc1O (stereo not drawn) [Salmeterol] records LBPA endosome anti-LBPA integrated intensity (z-score) of -0.4 or higher.
Response: Y

Prompt: Test whether the molecule Clc1ccc(CCC(Cn2ccnc2)Sc2c(Cl)cccc2Cl)cc1 (stereo not drawn) [Butoconazole nitrate] records LBPA endosome anti-LBPA integrated intensity (z-score) of -0.4 or higher.
Response: Y

Prompt: Test whether the molecule CO[C@@H]1[C@@H](O[C@@H]2O[C@H](C)[C@@H](O[C@H]3C[C@@](C)(O)[C@@H](OC(=O)CC(C)C)[C@H](C)O3)[C@H](N(C)C)[C@H]2O)[C@@H](CC=O)C[C@@H](C)[C@@H](O)/C=C/C=C/C[C@@H](C)OC(=O)C[C@H]1OC(C)=O [Josamycin] records LBPA endosome anti-LBPA integrated intensity (z-score) of -0.4 or higher.
Response: Y

Prompt: Test whether the molecule CN1C(=O)OC(C)(C)C1=O [Trimethadione] records LBPA endosome anti-LBPA integrated intensity (z-score) of -0.4 or higher.
Response: N

Prompt: Test whether the molecule CC[N+](C)(CC)CCOC(=O)C1c2ccccc2Oc2ccccc21 [Methantheline bromide] records LBPA endosome anti-LBPA integrated intensity (z-score) of -0.4 or higher.
Response: Y

Prompt: Test whether the molecule O=C1CN(/N=C/c2ccc(-c3ccc([N+](=O)[O-])cc3)o2)C(=O)N1 [Dantrolene sodium salt] records LBPA endosome anti-LBPA integrated intensity (z-score) of -0.4 or higher.
Response: N

Prompt: Test whether the molecule CC(c1cc2ccccc2s1)N(O)C(N)=O (stereo not drawn) [Zileuton] records LBPA endosome anti-LBPA integrated intensity (z-score) of -0.4 or higher.
Response: N

Prompt: Test whether the molecule CN(C)[C@@H]1C(O)=C(C(N)=O)C(=O)[C@@]2(O)C(O)=C3C(=O)c4c(O)ccc(Cl)c4[C@@](C)(O)[C@H]3C[C@@H]12 [Chlortetracycline hydrochloride] records LBPA endosome anti-LBPA integrated intensity (z-score) of -0.4 or higher.
Response: N

Prompt: Test whether the molecule CN1CCOC(c2ccccc2)c2ccccc2C1 (stereo not drawn) [Nefopam hydrochloride] records LBPA endosome anti-LBPA integrated intensity (z-score) of -0.4 or higher.
Response: N
